- Tgt: MAO-A (Homo sapiens, UniProt P21397)
- Construct: purchased Merck MAK295
- Sequence (P21397 1-527): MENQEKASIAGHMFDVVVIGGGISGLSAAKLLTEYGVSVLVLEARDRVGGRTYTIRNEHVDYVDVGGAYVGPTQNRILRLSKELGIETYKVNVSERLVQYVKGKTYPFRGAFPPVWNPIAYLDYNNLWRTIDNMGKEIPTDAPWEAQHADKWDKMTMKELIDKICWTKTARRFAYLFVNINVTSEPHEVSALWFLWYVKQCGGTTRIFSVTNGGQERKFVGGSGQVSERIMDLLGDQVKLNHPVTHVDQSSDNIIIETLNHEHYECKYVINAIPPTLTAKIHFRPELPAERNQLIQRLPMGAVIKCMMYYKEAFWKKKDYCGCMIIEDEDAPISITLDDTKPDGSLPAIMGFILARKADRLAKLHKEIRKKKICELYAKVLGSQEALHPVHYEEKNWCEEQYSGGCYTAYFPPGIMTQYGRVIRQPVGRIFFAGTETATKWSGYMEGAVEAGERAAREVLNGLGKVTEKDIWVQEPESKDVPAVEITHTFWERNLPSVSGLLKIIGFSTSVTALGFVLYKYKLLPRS
- Experimental protocol: Monoamine Oxidase-A Inhibitor Screening Kit (Merck, MAK295), fluorometric assay
- Type: biochemical
- Condition label: concentration 1 uM
Parameter: inhibition at 1 µM (%)

(A) Clc1ccc(/C=N/c2ccc3[nH]ncc3c2)c(Cl)c1
(B) Cc1cc(=O)oc2cc(OCC(=O)N/N=C/c3ccccc3)ccc12
(C) Cc1c(-c2ccccc2)c(=O)oc2cc(OS(=O)(=O)c3ccc(Br)cc3)ccc12
Prompt: sort_by: inhibition at 1 µM; order: ascending; scope: items listed above Please express your ranking as an ordered list of the labels.
Response: B, C, A
(B: 0%, C: 1.21%, A: 7.2%)

---

- Tgt: MAO-A (Homo sapiens, UniProt P21397)
- Sequence (P21397 1-527): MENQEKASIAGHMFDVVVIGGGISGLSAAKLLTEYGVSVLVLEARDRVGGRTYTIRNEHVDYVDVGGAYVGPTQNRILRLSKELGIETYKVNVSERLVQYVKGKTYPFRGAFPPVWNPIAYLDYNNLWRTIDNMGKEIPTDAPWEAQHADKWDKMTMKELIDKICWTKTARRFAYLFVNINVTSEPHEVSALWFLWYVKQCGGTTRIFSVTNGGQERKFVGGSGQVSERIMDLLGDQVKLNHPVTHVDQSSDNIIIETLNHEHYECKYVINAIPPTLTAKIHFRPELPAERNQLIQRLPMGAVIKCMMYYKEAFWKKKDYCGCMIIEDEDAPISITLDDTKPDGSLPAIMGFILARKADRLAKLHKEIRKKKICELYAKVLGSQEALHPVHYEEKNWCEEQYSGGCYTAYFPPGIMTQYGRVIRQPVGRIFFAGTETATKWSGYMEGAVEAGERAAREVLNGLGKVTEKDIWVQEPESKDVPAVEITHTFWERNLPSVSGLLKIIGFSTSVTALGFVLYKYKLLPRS
Parameter: IC50 (µM)

(a) Fc1ccc(-c2ccc3c(c2)[nH]c2ccncc23)cn1
(b) CC(=O)Nc1ccc2c(c1)-c1ccccc1C2=O
Prompt: Select the item whose IC50 value is smaller, choosing between a and b . // output: label of the selected item
Response: b
